Biological target: FIR1+2 F157L (human, UniProt Q9UHX1-2 101-299, R106G;C112S;C238A;F157L)
Sequence (Q9UHX1 118-316 R123G/C129S/F174L/C255A): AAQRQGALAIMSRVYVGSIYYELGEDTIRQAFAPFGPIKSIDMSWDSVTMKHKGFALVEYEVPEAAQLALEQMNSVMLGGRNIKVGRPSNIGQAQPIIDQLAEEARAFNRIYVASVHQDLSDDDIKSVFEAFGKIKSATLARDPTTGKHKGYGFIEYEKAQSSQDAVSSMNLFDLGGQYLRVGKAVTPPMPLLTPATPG
Assay: fluorescence anisotropy
measurement label: Kd (µM)
Give your result in µM as a bare value.

Ask | Query: Kd; subject: CCTCGGGATTTTTTATTTTGTGTTATT (ssDNA) [H27 (FUSE), fluorescein]
Reply | 140

Source: paper PMC2206118
